Molecular target: MASP-2 CCP2-SP (Homo sapiens (Human), UniProt O00187)
Sequence (O00187 445-686): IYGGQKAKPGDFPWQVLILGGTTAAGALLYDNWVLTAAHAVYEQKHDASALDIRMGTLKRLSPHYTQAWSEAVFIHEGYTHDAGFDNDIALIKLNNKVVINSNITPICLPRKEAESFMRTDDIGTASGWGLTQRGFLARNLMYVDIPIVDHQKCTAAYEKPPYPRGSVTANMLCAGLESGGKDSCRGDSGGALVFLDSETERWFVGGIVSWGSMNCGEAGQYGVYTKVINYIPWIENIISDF
Sequence (O00187 364-432 partner): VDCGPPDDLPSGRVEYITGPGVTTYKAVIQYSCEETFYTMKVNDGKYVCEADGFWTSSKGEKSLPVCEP
Assay: MASP-2 co-crystallization, X-ray crystallography and structure analysis (H-bonds, van der Waals contacts)
Settings: Table A7-1; between pharmacophore elements of the bound compound
Structures can show the parent of a compound that is named as a salt.
Property label: Pharmacophore torsion angle a(H4, O1, O2, H3)
Form: value (number only, do not type unit).

Exercise: What reported Pharmacophore torsion angle a(H4, O1, O2, H3) corresponds to Cc1nc(N)ccc1CNC(=O)[C@H](C)NC(=O)c1cc(Cc2ccccc2)n[nH]1 on MASP-2 CCP2-SP (Homo sapiens (Human), UniProt O00187)?
Key: 42.45

Exercise: Please answer likewise for N=C(N)c1ccc(CNC(=O)[C@@H]2CCN2C(=O)[C@H]2Cc3ccccc3CN2)cc1
Key: 93.33

Exercise: Please answer likewise for C[C@H](NC(=O)[C@H](N)C1Cc2ccccc2C1)C(=O)NCc1ccc2nc(N)[nH]c2c1
Key: 47.74

Exercise: Please answer likewise for C[C@H](NC(=O)[C@H]1C[C@H](Cc2ccccc2)CN1)C(=O)NCc1cc(Cl)ccc1-n1cnnn1 [compound 1371, Hydrochloride]
Key: −165.12

Exercise: Please answer likewise for C[C@H](NC(=O)[C@H]1C[C@@H](c2ccccc2)CCN1)C(=O)NCc1cc(Cl)ccc1O.Cl [1078_5]
Key: −119.72

Exercise: Please answer likewise for C[C@H](NC(=O)[C@H]1C[C@@H](c2ccccc2)CCN1)C(=O)NCc1cc(Cl)ccc1O.Cl [1078_10]
Key: −152.67

====

Biological target: MASP-2 CCP2-SP (Homo sapiens (Human))
Test: MASP-2 co-crystallization, X-ray crystallography and structure analysis (H-bonds, van der Waals contacts)
Conditions: Table A4-1; element C6
Source text: This example illustrates the preparation of recombinant MASP-2 protein, based on UniProt O00187, human mannan-binding lectin serine protease 2. Expression constructs for human MASP-2 CCP2-SP and CCP2-SP-6HIS were generated for recombinant expression in E. coli cells. […]
Where a name gives a salt, the structure may show the parent alone.
Property label: Ligand-pharmacophore element distance, pharmacophore element C6
Form: value (number only, do not type unit).

Exercise: Value lookup for Ligand-pharmacophore element distance, pharmacophore element C6; key = Cc1nc(N)ccc1CNC(=O)[C@H](C)NC(=O)[C@H]1C[C@@H](c2ccccc2)CCN1 [compound 1253, Dihydrochloride]
Key: 0

Exercise: Please answer likewise for Cc1nc(N)ccc1CNC(=O)[C@H](C)NC(=O)[C@H]1C[C@@H](c2ccccc2)CCN1CCC(=O)O [compound 1411, Trifluoroacetate salt]
Key: 0

Exercise: Please answer likewise for C[C@H](NC(=O)[C@H]1C[C@H](c2ccccc2)CN1)C(=O)NCc1ccc2c(N)nccc2c1 [compound 1090]
Key: 0

Exercise: Please answer likewise for CC(NC(=O)C1CC(Cc2ccccc2)CN1)C(=O)NCc1cnc2c(c1)c(Cl)cn2C.Cl.Cl (stereo not shown) [1450_B]
Key: 0

====

Target: UniProt O00187
Assay: MASP-2 co-crystallization, X-ray crystallography and structure analysis (H-bonds, van der Waals contacts)
Conditions: Table A1 (H-Bonds); SER 654 O
Counter-ions that a name gives are not always drawn.
Task for the reader: assign each of the following compounds its reported H-bond distance to MASP-2 SER 654 atom O.
Form: value (number only, do not type unit).

Exercise: Value lookup for H-bond distance to MASP-2 SER 654 atom O; key = Cc1nc(N)ccc1CNC(=O)[C@H](C)NC(=O)[C@H]1C[C@H](Cc2ccc(-c3ccccc3)cc2)CN1 [compound 1351]
Key: 2.98

Exercise: Please answer likewise for N=C(N)c1ccc(CNC(=O)[C@@H]2CCN2C(=O)[C@H]2Cc3ccccc3CN2)cc1 [compound 1034]
Key: 2.99

Exercise: Please answer likewise for Cc1cccc([C@H]2CN[C@@H](C(=O)N[C@@H](C)C(=O)NCc3ccc(N)nc3C)C2)c1 [compound 1257, Dihydrochloride]
Key: 3.02

Exercise: Please answer likewise for Cc1nc(N)ccc1CNC(=O)[C@H](C)NC(=O)c1cc(Cc2ccccc2)n[nH]1 [compound 1367]
Key: 3.08

Exercise: Please answer likewise for CC(=O)Nc1ccc(CCN[C@H](CCc2ccccc2)C(=O)N[C@@H](C)C(=O)NCc2ccc(N)nc2C)cc1 [compound 1368, Dihydrochloride]
Key: 3.04

Exercise: Please answer likewise for C[C@H](NC(=O)[C@H](N)C1Cc2ccccc2C1)C(=O)NCc1ccc2c(N)nccc2c1 [compound 1088, Dihydrochloride]
Key: 2.89

Exercise: Please answer likewise for Cc1nc(N)ccc1CNC(=O)C(C)NC(=O)[C@H]1C[C@H](c2cccc(-c3ccccc3)c2)CN1 (stereo in doubt) [compound 1360]
Key: 3.04
